# credit: patent US10051861B2

- Tested on: cattle ticks (Boophilus microplus)
- PROTOCOL NOTES: Boophilus microplus injection test (BOOPMI Inj)
- Type: in vivo
- CONDITION: application rate 20 μg/animal, injection, after 7 days
MEASUREMENT NAME: efficacy (laying of fertile eggs) (%)

>>> observed_measurement("Cc1cc(F)c(N=C(N)C(F)(F)C(F)(F)C(F)(F)C(F)(F)C(F)(F)C(F)F)cc1SCC(F)(F)F")
100
>>> observed_measurement("Cc1cc(F)c(N=C(NC(C)C)C(F)(F)F)cc1[S+]([O-])CC(F)(F)F (stereo not drawn)")
100
>>> observed_measurement("Cc1cc(F)c(/N=C(/N)C(F)(F)F)cc1[S+]([O-])CC(F)(F)F (stereo not drawn)")
100
